test_details: Half life in Sprague-Dawley rat at 10 mg/kg, po
Format: ADME, organism-based
Design: dose 10 mg/kg, route oral
recorded_conditions: in vivo
outcome_measure: half-life (min)

                                        mol  numeric_result
0  COCCOc1cc2ncnc(Nc3c(Cl)ccc4c3OCO4)c2cc1NC(=O)[C@@H]1CCCN1             324

---

test_details: Cmax in Sprague-Dawley rat at 10 mg/kg, po
Format: ADME, organism-based
Set-up: dose 10 mg/kg, route oral
recorded_conditions: in vivo
outcome_measure: Cmax (nM)

>>> df
                                        mol  outcome_measure  numeric_result
0  COCCOc1cc2ncnc(Nc3c(Cl)ccc4c3OCO4)c2cc1NC(=O)[C@@H]1CCCN1             Cmax             120
